Target: His6-TEV-PPARγ-(234-505) (Homo sapiens, UniProt P37231)
Construct: The His6-TEV-PPARγ-(234-505) protein for assay was expressed and purified; TEV cleavage site (N); made in house
Sequence (P37231 234-505): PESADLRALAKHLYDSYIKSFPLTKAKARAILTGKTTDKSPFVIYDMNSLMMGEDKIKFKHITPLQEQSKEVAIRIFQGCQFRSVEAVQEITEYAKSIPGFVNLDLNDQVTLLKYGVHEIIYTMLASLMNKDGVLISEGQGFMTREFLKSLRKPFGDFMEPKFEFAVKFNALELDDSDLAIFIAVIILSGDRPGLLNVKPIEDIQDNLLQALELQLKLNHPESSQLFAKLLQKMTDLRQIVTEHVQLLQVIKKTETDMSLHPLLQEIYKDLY
Assay: TR-FRET Assay to Measure Co-R Peptide Recruitment to PPARγ
Type: biochemical
Details: Co-R peptide (SMRT-ID2) recruitment; top final concentration 20 μM; read-out: TR-FRET i-Ag; AC50
Measured endpoint: log10 AC50 (log10 of the value in nM)
Field: value | Transform: log10 | Quantity: AC50 | Unit: nM

CO[C@]1(C(F)(F)F)CC[C@H](NC(=O)[C@@H]2CCN(C(=O)c3cc(-c4cc(C)ncc4F)[nH]n3)C3(CC3)C2)CC1 (single isomer, unassigned) :: 3.21
COc1cc(-c2cc(C(=O)N3CCC(C(=O)NCc4ccc5ncoc5c4)CC3)n[nH]2)c(Cl)cn1 :: 2.93
O=C(N[C@H]1CC[C@@](O)(C(F)(F)F)CC1)[C@@H]1C[C@H]2CC[C@@H](C1)N2C(=O)c1cc(-c2ccnc(CO)c2)[nH]n1 :: 2.54
Cc1cc(-c2cc(C(=O)N3[C@@H]4CC[C@H]3C[C@H](C(=O)NCc3ccc5[nH]nc(F)c5c3)C4)n[nH]2)c(F)cn1 :: 0.36
COc1cc(-c2cc(C(=O)N3CC[C@H](C(=O)NCc4ncccc4Cl)CC34CC4)n[nH]2)c(F)cn1 :: 0.71

Ask: I have this molecule here, COc1cc(-c2cc(C(=O)N3CCC(C(=O)NC4CCC(C)CC4)CC3)n[nH]2)c(F)cn1 (mixture of isomers) , and I need its recorded log10 AC50.
Result: 1.89
